# system tested: angiotensin-induced vasoconstriction (rabbit aorta) (Oryctolagus cuniculus)
# Construct: the thoracic aortas were removed and cleaned of excess fat and connective tissue; from tissue; host or cells: thoracic aorta rings of New Zealand white rabbits
# Sequence (P34976 whole entry): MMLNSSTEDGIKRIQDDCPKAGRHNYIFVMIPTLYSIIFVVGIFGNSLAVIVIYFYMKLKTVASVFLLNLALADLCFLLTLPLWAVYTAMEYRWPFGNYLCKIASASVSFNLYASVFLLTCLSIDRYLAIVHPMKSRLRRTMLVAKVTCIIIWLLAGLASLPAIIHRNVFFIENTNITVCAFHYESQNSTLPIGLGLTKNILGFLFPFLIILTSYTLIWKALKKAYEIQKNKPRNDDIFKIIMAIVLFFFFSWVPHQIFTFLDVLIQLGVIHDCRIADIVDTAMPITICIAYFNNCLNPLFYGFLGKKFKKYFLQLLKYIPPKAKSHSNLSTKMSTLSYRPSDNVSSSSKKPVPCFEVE
# protocol description: Rabbit Aorta Test System: antagonism of angiotensin II-induced contraction of aortic rings
# Assay type: cell-based, New Zealand white rabbits
# settings: pA2 = -log KB; KB = [molar concentration of antagonist]/[(EC50 AII with antagonist/EC50 AII without antagonist)-1]; 30 min incubation; AII 10^-10 to 10^-7 M; read-out: Rabbit Aorta (pA2) (converted)
Structures can show the parent of a compound that is named as a salt.
result type: Kb (µM)

CCCCCC(C(=O)O)c1ccc(Oc2ccccc2C(=O)O)cc1 (centres unmarked) ... 1.26
CCCCCCC(C(=O)O)n1cnc(NC(=O)c2ccccc2CC(=O)O)c1.O (centres unmarked) [Example 43, monohydrate] ... 0.955
CCCCCCC(CC(=O)O)n1cnc(NC(=O)c2ccccc2C(=O)O)c1.O (centres unmarked) [Example 39, monohydrate] ... 0.661
CCCCCCC(C(=O)O)n1cnc(NC(=O)c2cccc(O)c2)c1 (centres unmarked) [Example 78, hemihydrate] ... 7.94
CCCCCCC(C(=O)O)n1cnc(NC(=O)C2c3ccccc3-c3ccccc32)c1 (centres unmarked) [Example 31, hydrochloride] ... 3.09
CCCCCCC(C(=O)O)c1ccc(Cc2ccccc2C(=O)O)cc1 (centres unmarked) ... 1.66

(I) CCCCCCC(C(=O)O)n1cnc(C(=O)NC2CCc3ccccc32)c1.Cl (centres unmarked) [Example 57, hydrochloride]
(II) CCCCCCC(C(=O)OCC)c1ccc(NC(=O)c2ccccc2C(=O)O)cc1 (centres unmarked)
Q. Please indicate which entry, I or II , has the lower recorded Kb value. Indicate your choice by writing its label.
A. I
(I: 2.63 µM, II: 18.2 µM)
